biological target: UBE2T; assay: reporter assay of Huesken 2005; conditions: siRNA; note: test concentration or dose not given here
Oligonucleotides are written 5' to 3', each unit as a sugar letter and its base; * is a phosphorothioate linkage, no mark a phosphodiester; rarer units and linkages stand in square brackets, end groups in braces. Plain capitals give the bases only. d = 2'-deoxy (DNA); r = 2'-OH (RNA)
endpoint: normalised inhibition (eCFP-eYFP dual reporter) (%)
Write the number in % without appending the unit.

- sense rUrArUrUrArGrGrUrGrGrArGrCrCrArArCrArCdTdT / antisense rGrUrGrUrUrGrGrCrUrCrCrArCrCrUrArArUrAdTdT: 57.4
- sense rCrUrCrCrArArUrUrUrArUrCrArUrCrCrArArAdTdT / antisense rUrUrUrGrGrArUrGrArUrArArArUrUrGrGrArGdTdG: 107
- sense rArGrGrUrGrCrUrUrGrGrArGrArCrCrArUrCrCdTdT / antisense rGrGrArUrGrGrUrCrUrCrCrArArGrCrArCrCrUdTdT: 65.6
- sense rUrUrGrArArCrCrUrCrCrUrCrArGrArUrCrCrGdTdT / antisense rCrGrGrArUrCrUrGrArGrGrArGrGrUrUrCrArAdAdT: 56.5
- sense rCrArGrArGrUrArCrArCrArArCrUrCrArArCrAdTdT / antisense rUrGrUrUrGrArGrUrUrGrUrGrUrArCrUrCrUrGdGdA: 83

Give its normalised inhibition (eCFP-eYFP dual reporter) value. Item: sense rUrCrArArCrArCrArGrArArArArGrGrArArGrGdTdT / antisense rCrCrUrUrCrCrUrUrUrUrCrUrGrUrGrUrUrGrAdGdT
65.5

Give its normalised inhibition (eCFP-eYFP dual reporter) value. Item: sense rCrUrUrCrCrUrCrArArGrArArUrGrCrCrArGrAdTdT / antisense rUrCrUrGrGrCrArUrUrCrUrUrGrArGrGrArArGdGdC
76

Give its normalised inhibition (eCFP-eYFP dual reporter) value. Item: sense rUrArUrCrArUrCrCrArArArCrArUrUrGrArUrUdTdT / antisense rArArUrCrArArUrGrUrUrUrGrGrArUrGrArUrAdAdA
67.4

Give its normalised inhibition (eCFP-eYFP dual reporter) value. Item: sense rUrCrArCrUrCrCrArArUrUrUrArUrCrArUrCrCdTdT / antisense rGrGrArUrGrArUrArArArUrUrGrGrArGrUrGrAdGdA
56.8

Give its normalised inhibition (eCFP-eYFP dual reporter) value. Item: sense rCrCrUrGrCrGrArGrCrUrCrArArArUrArUrUrAdTdT / antisense rUrArArUrArUrUrUrGrArGrCrUrCrGrCrArGrGdTdC
102

Give its normalised inhibition (eCFP-eYFP dual reporter) value. Item: sense rCrArUrCrGrCrArArCrUrGrUrGrUrUrGrArCrCdTdT / antisense rGrGrUrCrArArCrArCrArGrUrUrGrCrGrArUrGdTdT
84.8

Give its normalised inhibition (eCFP-eYFP dual reporter) value. Item: sense rArArGrGrArUrUrUrGrUrCrUrGrGrArUrGrUrUdTdT / antisense rArArCrArUrCrCrArGrArCrArArArUrCrCrUrUdCdC
79.9

---

target: Mmp7 (rat); assay: reporter assay of Huesken 2005; details: siRNA
Oligonucleotides are given in HELM: sugar(base)linkage, 5' to 3'; d 2'-deoxyribose, r ribose, m 2'-O-methylribose, p phosphate. ss, as = sense and antisense strand
endpoint: normalised inhibition (eCFP-eYFP dual reporter) (%)
Write the number in % without appending the unit.

Answered examples (2):
- RNA1{r(G)p.r(G)p.r(A)p.r(A)p.r(G)p.r(C)p.r(C)p.r(G)p.r(G)p.r(A)p.r(G)p.r(A)p.r(A)p.r(G)p.r(U)p.r(G)p.r(A)p.r(C)p.r(C)p.d(T)p.d(T)}|RNA2{r(G)p.r(G)p.r(U)p.r(C)p.r(A)p.r(C)p.r(U)p.r(U)p.r(C)p.r(U)p.r(C)p.r(C)p.r(G)p.r(G)p.r(C)p.r(U)p.r(U)p.r(C)p.r(C)p.d(T)p.d(G)}$$$RNA1{StrandType:ss}|RNA2{StrandType:as}$: 83
- RNA1{r(U)p.r(C)p.r(A)p.r(U)p.r(A)p.r(A)p.r(U)p.r(U)p.r(G)p.r(G)p.r(C)p.r(U)p.r(U)p.r(C)p.r(G)p.r(C)p.r(A)p.r(A)p.r(G)p.d(T)p.d(T)}|RNA2{r(C)p.r(U)p.r(U)p.r(G)p.r(C)p.r(G)p.r(A)p.r(A)p.r(G)p.r(C)p.r(C)p.r(A)p.r(A)p.r(U)p.r(U)p.r(A)p.r(U)p.r(G)p.r(A)p.d(T)p.d(G)}$$$RNA1{StrandType:ss}|RNA2{StrandType:as}$: 75.5

In the following, a different substance is considered.
Give its normalised inhibition (eCFP-eYFP dual reporter) value. Item: RNA1{r(G)p.r(G)p.r(C)p.r(C)p.r(A)p.r(C)p.r(U)p.r(C)p.r(U)p.r(C)p.r(U)p.r(G)p.r(G)p.r(G)p.r(U)p.r(C)p.r(U)p.r(G)p.r(G)p.d(T)p.d(T)}|RNA2{r(C)p.r(C)p.r(A)p.r(G)p.r(A)p.r(C)p.r(C)p.r(C)p.r(A)p.r(G)p.r(A)p.r(G)p.r(A)p.r(G)p.r(U)p.r(G)p.r(G)p.r(C)p.r(C)p.d(A)p.d(A)}$$$RNA1{StrandType:ss}|RNA2{StrandType:as}$
41.4

---

biological target: Cacnb1 (rat); test: reporter assay of Huesken 2005; conditions: siRNA
Oligonucleotides are given in HELM: sugar(base)linkage, 5' to 3'; d 2'-deoxyribose, r ribose, m 2'-O-methylribose, p phosphate. ss, as = sense and antisense strand
endpoint: normalised inhibition (eCFP-eYFP dual reporter) (%)
Write the number in % without appending the unit.

Give its normalised inhibition (eCFP-eYFP dual reporter) value. Item: RNA1{r(C)p.r(A)p.r(G)p.r(G)p.r(A)p.r(G)p.r(A)p.r(U)p.r(G)p.r(A)p.r(G)p.r(G)p.r(U)p.r(G)p.r(C)p.r(C)p.r(A)p.r(G)p.r(U)p.d(T)p.d(T)}|RNA2{r(A)p.r(C)p.r(U)p.r(G)p.r(G)p.r(C)p.r(A)p.r(C)p.r(C)p.r(U)p.r(C)p.r(A)p.r(U)p.r(C)p.r(U)p.r(C)p.r(C)p.r(U)p.r(G)p.d(G)p.d(A)}$$$RNA1{StrandType:ss}|RNA2{StrandType:as}$
83.4

---

target: UBE2M; assay: reporter assay of Huesken 2005; settings: siRNA
Oligonucleotides are written 5' to 3', each unit as a sugar letter and its base; * is a phosphorothioate linkage, no mark a phosphodiester; rarer units and linkages stand in square brackets, end groups in braces. Plain capitals give the bases only. d = 2'-deoxy (DNA); r = 2'-OH (RNA)
Attribute: normalised inhibition (eCFP-eYFP dual reporter)
A complete answer gives the number followed by the unit.

Answered examples (4):
• sense rGrGrCrCrUrGrCrArGrUrArUrCrUrCrUrUrCrUdTdT / antisense rArGrArArGrArGrArUrArCrUrGrCrArGrGrCrCdAdT = 80.2%
• sense rArGrUrGrUrGrArGrArCrArArUrGrGrUrCrUrAdTdT / antisense rUrArGrArCrCrArUrUrGrUrCrUrCrArCrArCrUdTdC = 92.1%
• sense rUrGrArArCrArArGrGrArGrGrCrCrGrCrArGrAdTdT / antisense rUrCrUrGrCrGrGrCrCrUrCrCrUrUrGrUrUrCrAdGdT = 65.9%
• sense rGrGrUrCrUrArUrCrArCrCrCrCrArArCrArUrUdTdT / antisense rArArUrGrUrUrGrGrGrGrUrGrArUrArGrArCrCdAdT = 79.7%

GET /values?readout=normalised inhibition (eCFP-eYFP dual reporter)&system=UBE2M&item= sense rUrArArUrUrUrArUrGrGrCrCrUrGrCrArGrUrAdTdT / antisense rUrArCrUrGrCrArGrGrCrCrArUrArArArUrUrAdTdG
67%

GET /values?readout=normalised inhibition (eCFP-eYFP dual reporter)&system=UBE2M&item= sense rCrCrGrCrArGrArGrGrUrCrCrUrGrCrArGrArAdTdT / antisense rUrUrCrUrGrCrArGrGrArCrCrUrCrUrGrCrGrGdCdC
67.1%

---

target: Mmp7 (rat); experiment: reporter assay of Huesken 2005; conditions: siRNA
Oligonucleotides are given in HELM: sugar(base)linkage, 5' to 3'; d 2'-deoxyribose, r ribose, m 2'-O-methylribose, p phosphate. ss, as = sense and antisense strand
endpoint: normalised inhibition (eCFP-eYFP dual reporter) (%)
Write the number in % without appending the unit.

Give its normalised inhibition (eCFP-eYFP dual reporter) value. Item: RNA1{r(A)p.r(A)p.r(U)p.r(U)p.r(U)p.r(U)p.r(A)p.r(C)p.r(C)p.r(U)p.r(U)p.r(C)p.r(A)p.r(C)p.r(G)p.r(A)p.r(C)p.r(U)p.r(C)p.d(T)p.d(T)}|RNA2{r(G)p.r(A)p.r(G)p.r(U)p.r(C)p.r(G)p.r(U)p.r(G)p.r(A)p.r(A)p.r(G)p.r(G)p.r(U)p.r(A)p.r(A)p.r(A)p.r(A)p.r(U)p.r(U)p.d(T)p.d(C)}$$$RNA1{StrandType:ss}|RNA2{StrandType:as}$
76.1

Give its normalised inhibition (eCFP-eYFP dual reporter) value. Item: RNA1{r(C)p.r(C)p.r(C)p.r(A)p.r(G)p.r(G)p.r(A)p.r(A)p.r(G)p.r(C)p.r(C)p.r(G)p.r(G)p.r(A)p.r(G)p.r(A)p.r(A)p.r(G)p.r(U)p.d(T)p.d(T)}|RNA2{r(A)p.r(C)p.r(U)p.r(U)p.r(C)p.r(U)p.r(C)p.r(C)p.r(G)p.r(G)p.r(C)p.r(U)p.r(U)p.r(C)p.r(C)p.r(U)p.r(G)p.r(G)p.r(G)p.d(A)p.d(C)}$$$RNA1{StrandType:ss}|RNA2{StrandType:as}$
64.2

Give its normalised inhibition (eCFP-eYFP dual reporter) value. Item: RNA1{r(U)p.r(G)p.r(A)p.r(G)p.r(G)p.r(G)p.r(A)p.r(A)p.r(A)p.r(U)p.r(G)p.r(C)p.r(A)p.r(G)p.r(A)p.r(A)p.r(G)p.r(U)p.r(U)p.d(T)p.d(T)}|RNA2{r(A)p.r(A)p.r(C)p.r(U)p.r(U)p.r(C)p.r(U)p.r(G)p.r(C)p.r(A)p.r(U)p.r(U)p.r(U)p.r(C)p.r(C)p.r(C)p.r(U)p.r(C)p.r(A)p.d(G)p.d(T)}$$$RNA1{StrandType:ss}|RNA2{StrandType:as}$
104
